# assay comment: Cytotoxicity against human HepG2.2.15 cells after 9 days by MTT assay
# Format: cell-based, HepG2 2.2.15
# settings: read-out: TC50
reported property: CC50 at 216 h
Kindly report the value followed by its unit.

Example entries begin here.
molecule	CC50 at 216 h
CCOC(=O)c1cc2c(CN3CCCCC3)c(O)c(OC)cc2nc1CSc1ccccc1	60.7 µM
CCOC(=O)c1cc2c(Cn3ccnc3)c(O)c(OC)cc2nc1CSc1ccc(OC)c(OC)c1	189 µM
Nc1ccn([C@@H]2CS[C@H](CO)O2)c(=O)n1	2210 µM
CCOC(=O)c1cc2c(Cn3ccnc3)c(O)c(OC)cc2nc1C[S+]([O-])c1ccc(F)c(F)c1 (stereo not given)	90.8 µM
CCOC(=O)c1cc2c(CN3CCCC3)c(O)c(OC)cc2nc1C[S+]([O-])c1ccc(F)cc1 (stereo not given)	166 µM
CCOC(=O)c1cc2c(CN3CCCCC3)c(O)c(OC)cc2nc1CSc1ccc(F)c(F)c1	135 µM
CCOC(=O)c1cc2c(Cn3ccnc3)c(O)c(OC)cc2nc1C[S+]([O-])c1ccc(F)cc1 (stereo not given)	160 µM
CCOC(=O)c1cc2c(CN(C)C)c(O)c(OC)cc2nc1C[S+]([O-])c1ccc(F)cc1 (stereo not given)	90.4 µM
CCOC(=O)c1cc2c(CN3CCCC3)c(O)c(OC)cc2nc1C[S+]([O-])c1ccccn1 (stereo not given)	9.4 µM
CCOC(=O)c1cc2c(Cn3ccnc3)c(O)c(OC)cc2nc1CSc1cccc(OC)c1	186 µM

**Query** Reported CC50 at 216 h for `CCOC(=O)c1cc2c(Cn3ccnc3)c(O)c(OC)cc2nc1CSc1ccc(F)c(F)c1` : what is it?
**Result** 133 µM

**Query** Okay, and `CCOC(=O)c1cc2c(CN3CCN(C)CC3)c(O)c(OC)cc2nc1CSc1ccc(F)c(F)c1` ?
**Result** 55.3 µM

**Query** Okay, and CCOC(=O)c1cc2c(CN3CCCC3)c(O)c(OC)cc2nc1C[S+]([O-])c1ccc(F)c(F)c1 (stereo not given) ?
**Result** 16.5 µM
